Values were extracted from patent EP1743640A1.

// Ki collected for CB2-Receptor (Homo sapiens, UniProt P34972)
measurement type: Ki

INSERT INTO measurements (molecule, measurement_type, result) VALUES
  ('O=C(NN1CCCCC1)C1=NN(c2ccc(Cl)cc2Cl)C(c2ccc(Cl)cc2)C1 (centres unmarked)', 'Ki', '> 1000 nM'),
  ('O=C(C1=NN(c2ccc(Cl)cc2Cl)C(c2ccc(Cl)cc2)C1)N1CCCCC1 (centres unmarked)', 'Ki', '~1000 nM');

----------
- assayed target: CB1-Receptor (Homo sapiens, UniProt P21554)
- Sequence (P21554 whole entry): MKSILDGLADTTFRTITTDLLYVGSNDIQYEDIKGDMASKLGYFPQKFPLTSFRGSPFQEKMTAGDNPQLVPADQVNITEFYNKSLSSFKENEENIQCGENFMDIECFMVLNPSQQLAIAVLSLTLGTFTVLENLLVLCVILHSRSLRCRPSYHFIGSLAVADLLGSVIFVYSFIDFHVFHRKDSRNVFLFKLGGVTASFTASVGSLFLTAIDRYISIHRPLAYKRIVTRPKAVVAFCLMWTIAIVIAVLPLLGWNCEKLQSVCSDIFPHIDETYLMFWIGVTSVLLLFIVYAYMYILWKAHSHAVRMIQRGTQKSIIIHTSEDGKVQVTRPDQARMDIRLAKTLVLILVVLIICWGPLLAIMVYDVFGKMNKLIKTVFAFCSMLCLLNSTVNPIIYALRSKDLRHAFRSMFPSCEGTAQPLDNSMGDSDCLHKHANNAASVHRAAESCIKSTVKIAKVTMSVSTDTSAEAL
pKi: −log10 of the molar value.
measurement type: pKi

INSERT INTO measurements (compound, result) VALUES
  ('O=C(NN1CCCCC1)C1=NN(c2ccc(Cl)cc2Cl)C(c2ccc(Cl)cc2)C1 (stereo not shown)', '> 7.60');
